# ASSAY: Ocular pharmacokinetics of Comp-02 after topical administration (instillation) in rabbit
# Format: in vivo, pigmented HY79b rabbits
# EXPERIMENTAL CONTEXT: male, pigmented HY79b, topical or ocular, 50 μl of 1 mg/mL in both eyes, aqueous humor, topical, calculated from the Tmax value
REPORTED METRIC: half-life

Query: What half-life value was documented for this compound, CNC(=O)C(=O)NCCCC/C=C\CCCCCCCOCC(=O)O [Comp-02] ?
Reply: 1 h

* * *

# ASSAY: Ocular pharmacokinetics of Comp-02 after oral administration in rabbit
# Type: in vivo, pigmented HY79b rabbits
# EXPERIMENTAL CONTEXT: male, pigmented HY79b; plasma; single oral 2 mg/kg; rabbit; calculated from the Tmax value
REPORTED METRIC: half-life (h)
Write it as a number; the unit h goes unstated.

Query: What half-life value was documented for this molecule, CNC(=O)C(=O)NCCCC/C=C\CCCCCCCOCC(=O)O [Comp-02] ?
Reply: 6
